experiment: HeLa cell viability loss – plate reader, dry powder, cytotoxicity control, dose response (AID 651946); settings: ATP luminescence (CellTiter-Glo), 48 h; series mostly up to 26 µM
Entries with a potency or affinity are not part of this list. Active and inactive are the calls of the source.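 The calls were made as follows: active = toxic compound whose fitted half-effect dose of signal loss is at most twice its top tested dose; inconclusive = flat fit losing 30 to 70% signal, or poor fit; inactive = the rest.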
Readout Kind: outcome

structure_as_smiles=c1ccc(CSc2nnc(Cc3ccccc3)o2)cc1 assay_result=inactive
structure_as_smiles=c1ccc(CSc2nnc(-c3ccc(-c4ccccc4)cc3)o2)cc1 assay_result=inactive
structure_as_smiles=c1ccc(CSc2nnc(-c3cccnc3)o2)cc1 assay_result=inactive
structure_as_smiles=Cc1ccc(-c2nnc(SCc3ccccn3)o2)cc1 assay_result=inactive
structure_as_smiles=COc1cccc(CSc2nnc(-c3ccccc3)o2)c1 assay_result=inactive
structure_as_smiles=Fc1ccc(-c2nnc(SCc3ccccn3)o2)cc1 assay_result=inactive
structure_as_smiles=Clc1cccc(CSc2nnc(-c3ccccc3)o2)c1 assay_result=inactive
structure_as_smiles=CS(=O)(=O)c1ccc(CSc2nnc(-c3ccccc3)o2)cc1 assay_result=inactive
structure_as_smiles=Fc1cccc(-c2nnc(SCc3ccccc3)o2)c1 assay_result=inactive
structure_as_smiles=c1ccc(CSc2nnc(-c3ccncc3)o2)nc1 assay_result=inactive
structure_as_smiles=Fc1ccc(CSc2nnc(-c3ccc(Cl)cc3)o2)cc1 assay_result=inactive
structure_as_smiles=c1ccc(CSc2nnc(-c3cc4ccccc4o3)o2)cc1 assay_result=inactive
structure_as_smiles=FC(F)(F)Oc1cccc(-c2nnc(SCc3ccccc3)o2)c1 assay_result=inactive
structure_as_smiles=c1ccc(-n2cc(CSc3nnc(C4CCC4)o3)nn2)cc1 assay_result=inactive
structure_as_smiles=FC(F)(F)Oc1ccc(-c2nnc(SCc3ccccc3)o2)cc1 assay_result=inactive
structure_as_smiles=c1ccc(-c2nnc(SC3CCCCC3)o2)cc1 assay_result=inactive
structure_as_smiles=Clc1ccc(CSc2nnc(-c3ccccc3)o2)cc1 assay_result=inactive
structure_as_smiles=c1ccc(Cn2cc(CSc3nnc(C4CCCC4)o3)nn2)cc1 assay_result=inactive
structure_as_smiles=Fc1ccc(Cn2cc(CSc3nnc(C4CCCC4)o3)nn2)cc1 assay_result=inactive
structure_as_smiles=c1ccc(Cn2cc(CSc3nnc(-c4ccccc4)o3)nn2)cc1 assay_result=inactive
structure_as_smiles=Fc1ccc(-c2nnc(SCc3cn(Cc4ccccc4)nn3)o2)cc1 assay_result=inactive
structure_as_smiles=c1ccc(-c2nnc(SCc3cccnc3)o2)cc1 assay_result=inactive
structure_as_smiles=COc1cccc(-c2nnc(SCc3ccccc3)o2)c1 assay_result=inactive
structure_as_smiles=COc1ccc(CSc2nnc(-c3ccc(Cl)cc3)o2)nc1 assay_result=inactive
structure_as_smiles=c1ccc(CSc2nnc(C3CCCCC3)o2)cc1 assay_result=inactive
structure_as_smiles=Cc1ccc(CSc2nnc(-c3ccccc3)o2)cc1 assay_result=inactive

Measured values drawn from PubChem BioAssay AID651946 for this set.
